biological target: human transporter MRP2 (Homo sapiens); experiment: Accumulation of acyclovir in MRP2-MDCK cells
value_type: pIC50
Please note pIC50 is a logarithmic value: minus log10 of concentration in mol/L. Answer with that number alone.

Asked: Query pIC50 on human transporter MRP2 (Homo sapiens) for C/C(O)=C(\C#N)C(=O)Nc1ccc(C(F)(F)F)cc1 [TER, teriflunomide]
Given back: 5.31
